Give measured melting point for each item. Keep answers brief.
Counter-ions that a name gives are not always drawn.
// note: answer is a bare numeric in °C

State the recorded melting point for this entry: CCc1ccccc1-n1ncc2c(=O)[nH]c(CC3C=CCC3)nc21 (stereo not drawn) (as salt: sodium) [Example 8]
146

Query (molecule): O=c1[nH]c(CC2C=CCC2)nc2c1cnn2-c1ccccc1C(F)(F)F (stereo not drawn) (as salt: sodium) [Example 14] ; field requested: melting point
153

So what's the measured melting point for this one? Cc1ccccc1-n1ncc2c(=O)[nH]c(CC3C=CCC3)nc21 (stereo not drawn) (as salt: sodium) [Example 9]
179

Which melting point value belongs to Cc1ccccc1-n1ncc2c(=O)[nH]c(CC3CCCC3)nc21 (as salt: sodium) ?
181

I have this molecule here, O=c1[nH]c(CC2C=CCC2)nc2c1cnn2-c1ccccc1F (stereo not drawn) (as salt: sodium) [Example 15] , and I need its recorded melting point.
163

Any idea what melting point was measured for CCC(CC)Cc1nc2c(cnn2-c2cnccc2C)c(=O)[nH]1 (as salt: sodium) [Example 41] ?
143

* * *

Where a name gives a salt, the structure may show the parent alone.
Readout: melting point
Kindly write the number and append the unit.

Which measured melting point value corresponds to Cc1ccncc1-n1ncc2c(=O)[nH]c(CC3CCCC3)nc21 (as salt: sodium) ?
206 °C

For the compound COc1ccccc1-n1ncc2c(=O)[nH]c(CC3C=CCC3)nc21 (stereo not drawn) (as salt: sodium) , what melting point is on record?
182 °C

What value of melting point has been reported for the following compound? O=c1[nH]c(CC2C=CCC2)nc2c1cnn2-c1ccccc1Cl (stereo not drawn) (as salt: sodium)
150 °C
